Substrate: CP C3-convertase (C4b2a) (Homo sapiens (Human)) (UniProt P0C0L4)
Reported CP-DAA IC50 values are given for each entry in this list.
The answer is to be given in nM; state only the numeric part.

- binder: "D2D3M3M4 (Multi-4) (protein) CEVPTRLNSASLKQPYITQNYFPVGTVVEYECRPGYRREPSLSPKLTCLQNLKWSTAVEFCKKKSCPNPGEIRNGQIDVPGGILFGATISFSCNTGYKLIGKTSSFCLISGSSVQWSDKLPICEKVLCTPPPKIKNGKHTFSEVEVFEYLDAVTYSCDPAPGPDPFSLIGESTIYCGDNSVWSRAAPECKVVKCRFPVVENGKQISGFGKKFYYKATVMFECDKGFYLDGSDTIVCDSNSTWDPPVPKCLKVL"
  CP-DAA IC50 [nM]: 39.3
- binder: "D2D3M3M4 (F197I) (protein) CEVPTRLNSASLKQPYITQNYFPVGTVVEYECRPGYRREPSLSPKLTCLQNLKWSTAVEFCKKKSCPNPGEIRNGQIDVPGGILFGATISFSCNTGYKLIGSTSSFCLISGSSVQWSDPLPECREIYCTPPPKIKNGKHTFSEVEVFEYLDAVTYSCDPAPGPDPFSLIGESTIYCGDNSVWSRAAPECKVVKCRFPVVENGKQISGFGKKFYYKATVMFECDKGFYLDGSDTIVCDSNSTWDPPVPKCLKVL"
  CP-DAA IC50 [nM]: 30.7
- binder: "D2D3D4M4 (protein) CEVPTRLNSASLKQPYITQNYFPVGTVVEYECRPGYRREPSLSPKLTCLQNLKWSTAVEFCKKKSCPNPGEIRNGQIDVPGGILFGATISFSCNTGYKLFGSTSSFCLISGSSVQWSDPLPECREIYCPAPPQIDNGIIQGERDHYGYRQSVTYACNKGFTMIGEHSIYCTVNNDEGEWSGPPPECRGKSCRFPVVENGKQISGFGKKFYYKATVMFECDKGFYLDGSDTIVCDSNSTWDPPVPKCLKVL"
  CP-DAA IC50 [nM]: 5.7

Proceeding to the next binder to report its CP-DAA IC50.
Lab note: measured CP-DAA IC50 of D2D3M3M4 (P216K) (protein) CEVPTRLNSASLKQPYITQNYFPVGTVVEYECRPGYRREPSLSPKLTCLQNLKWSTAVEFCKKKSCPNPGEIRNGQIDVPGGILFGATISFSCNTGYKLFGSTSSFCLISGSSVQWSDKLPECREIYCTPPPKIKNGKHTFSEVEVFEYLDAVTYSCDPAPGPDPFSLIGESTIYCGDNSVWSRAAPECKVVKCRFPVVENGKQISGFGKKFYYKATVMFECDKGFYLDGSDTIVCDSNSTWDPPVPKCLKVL was 21
